Target: HDAC1 (Homo sapiens)
Construct: purchased BPS Bioscience
Sequence (Q13547 whole entry, species assumed): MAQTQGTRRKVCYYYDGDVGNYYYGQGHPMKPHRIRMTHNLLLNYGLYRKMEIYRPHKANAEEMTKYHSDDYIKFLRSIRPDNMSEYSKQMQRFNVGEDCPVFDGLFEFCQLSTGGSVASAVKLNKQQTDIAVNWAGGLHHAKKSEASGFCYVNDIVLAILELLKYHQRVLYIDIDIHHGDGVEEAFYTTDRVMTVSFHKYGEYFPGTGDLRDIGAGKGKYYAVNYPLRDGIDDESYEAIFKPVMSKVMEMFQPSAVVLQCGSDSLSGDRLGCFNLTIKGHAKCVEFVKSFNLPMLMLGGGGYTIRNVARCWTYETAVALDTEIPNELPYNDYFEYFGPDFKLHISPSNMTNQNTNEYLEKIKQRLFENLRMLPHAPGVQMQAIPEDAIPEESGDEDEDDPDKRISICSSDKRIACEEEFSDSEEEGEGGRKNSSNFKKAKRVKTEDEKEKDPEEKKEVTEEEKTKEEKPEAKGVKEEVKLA
Assay: In vitro HDAC1 enzymatic activity inhibition (Lys-Ac-AMC substrate)
Type: biochemical
metric: IC50

Enquiry: Provide one value: measured IC50 of CN(Cc1nc2c(N3CCOCC3)nc(-c3cccc(NS(=O)(=O)CCCl)c3)nc2n1C)c1ncc(C(=O)NO)cn1 [CLJ-50]
Return: < 0.1 µM

----------
Can you tell me IC50 for the items I'm about to list?
Biological target: PI3Kγ (Homo sapiens, UniProt P48736)
Construct: purchased Invitrogen PR8641C
Sequence (P48736 whole entry): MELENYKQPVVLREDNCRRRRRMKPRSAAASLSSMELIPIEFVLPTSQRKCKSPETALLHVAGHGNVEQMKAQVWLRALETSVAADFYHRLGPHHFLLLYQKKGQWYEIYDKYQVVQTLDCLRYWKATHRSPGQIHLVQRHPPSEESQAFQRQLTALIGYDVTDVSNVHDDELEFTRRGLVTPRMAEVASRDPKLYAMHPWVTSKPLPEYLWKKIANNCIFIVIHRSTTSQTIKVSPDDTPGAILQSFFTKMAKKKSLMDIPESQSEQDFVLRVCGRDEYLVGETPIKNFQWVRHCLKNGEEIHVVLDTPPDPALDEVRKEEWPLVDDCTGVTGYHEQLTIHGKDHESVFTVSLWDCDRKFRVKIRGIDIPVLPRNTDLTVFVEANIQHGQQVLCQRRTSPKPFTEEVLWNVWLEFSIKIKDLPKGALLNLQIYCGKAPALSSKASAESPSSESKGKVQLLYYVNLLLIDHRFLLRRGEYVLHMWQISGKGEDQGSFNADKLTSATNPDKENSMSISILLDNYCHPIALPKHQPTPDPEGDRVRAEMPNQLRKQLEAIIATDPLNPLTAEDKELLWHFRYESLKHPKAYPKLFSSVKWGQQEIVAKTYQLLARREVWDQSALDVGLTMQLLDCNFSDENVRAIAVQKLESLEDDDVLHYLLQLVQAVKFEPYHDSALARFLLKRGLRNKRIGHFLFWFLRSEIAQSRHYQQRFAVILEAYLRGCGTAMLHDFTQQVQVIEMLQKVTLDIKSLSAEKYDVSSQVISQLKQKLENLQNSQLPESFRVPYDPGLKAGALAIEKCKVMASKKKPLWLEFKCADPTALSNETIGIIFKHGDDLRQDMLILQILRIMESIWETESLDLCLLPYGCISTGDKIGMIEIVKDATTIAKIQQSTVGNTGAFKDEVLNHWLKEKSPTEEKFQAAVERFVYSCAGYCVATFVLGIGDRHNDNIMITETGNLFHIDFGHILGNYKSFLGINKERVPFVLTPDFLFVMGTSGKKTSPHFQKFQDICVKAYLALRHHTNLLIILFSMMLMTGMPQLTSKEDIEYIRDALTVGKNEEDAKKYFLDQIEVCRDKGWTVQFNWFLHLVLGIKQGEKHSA
Assay: PI3Kγ activity inhibition (ADP-Glo)
Format: biochemical
Conditions: Table 1, graded

Enquiry: Tell me its IC50 on PI3Kγ (Homo sapiens, UniProt P48736): CN(Cc1nc2c(N3CCOCC3)nc(-c3ccc4[nH]ncc4c3)nc2n1C)c1ncc(C(=O)NO)cn1
Return: > 10000 nM

Enquiry: Tell me its IC50 on PI3Kγ (Homo sapiens, UniProt P48736): CCN(Cc1nc2c(N3CCOCC3)nc(-c3ccc(OC)nc3)nc2n1C)c1ncc(C(=O)NO)cn1
Return: 100 to 1000 nM

Enquiry: Tell me its IC50 on PI3Kγ (Homo sapiens, UniProt P48736): CN(Cc1nc2c(N3CCOCC3)nc(-c3cnc(N)nc3)nc2n1C)c1ncc(C(=O)NO)cn1
Return: 100 to 1000 nM

Enquiry: Tell me its IC50 on PI3Kγ (Homo sapiens, UniProt P48736): CNc1ncc(-c2nc(N3CCOCC3)c3nc(CN(C)c4ncc(C(=O)NO)cn4)n(C)c3n2)cn1
Return: 100 to 1000 nM

Enquiry: Tell me its IC50 on PI3Kγ (Homo sapiens, UniProt P48736): Cc1ncc(-c2nc(N3CCOCC3)c3nc(CN(C)c4ncc(C(=O)NO)cn4)n(C)c3n2)cn1
Return: 100 to 1000 nM

Enquiry: Tell me its IC50 on PI3Kγ (Homo sapiens, UniProt P48736): CCCN(Cc1nc2c(N3CCOCC3)nc(-c3ccc(OC)nc3)nc2n1C)c1ncc(C(=O)NO)cn1
Return: > 10000 nM

Enquiry: Tell me its IC50 on PI3Kγ (Homo sapiens, UniProt P48736): COc1ccc(-c2nc(N3CCOCC3)c3nc(CN(C)c4ncc(C(=O)NO)cn4)n(C)c3n2)cn1
Return: 100 to 1000 nM

Enquiry: Tell me its IC50 on PI3Kγ (Homo sapiens, UniProt P48736): CN(Cc1nc2c(N3CCOCC3)nc(-c3cnc4ccccc4c3)nc2n1C)c1ncc(C(=O)NO)cn1
Return: > 10000 nM
